Source: ChEMBL document CHEMBL1201862

molecular target: Nuclear receptor subfamily 5 group A member 2 (Homo sapiens); format: functional, cell-based;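 also: HEK293T cells transfected with LRH-1 and a StAR promoter luciferase reporter; potency for inhibitors that lower LRH-1 driven reporter light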
Sequence (O00482 whole entry): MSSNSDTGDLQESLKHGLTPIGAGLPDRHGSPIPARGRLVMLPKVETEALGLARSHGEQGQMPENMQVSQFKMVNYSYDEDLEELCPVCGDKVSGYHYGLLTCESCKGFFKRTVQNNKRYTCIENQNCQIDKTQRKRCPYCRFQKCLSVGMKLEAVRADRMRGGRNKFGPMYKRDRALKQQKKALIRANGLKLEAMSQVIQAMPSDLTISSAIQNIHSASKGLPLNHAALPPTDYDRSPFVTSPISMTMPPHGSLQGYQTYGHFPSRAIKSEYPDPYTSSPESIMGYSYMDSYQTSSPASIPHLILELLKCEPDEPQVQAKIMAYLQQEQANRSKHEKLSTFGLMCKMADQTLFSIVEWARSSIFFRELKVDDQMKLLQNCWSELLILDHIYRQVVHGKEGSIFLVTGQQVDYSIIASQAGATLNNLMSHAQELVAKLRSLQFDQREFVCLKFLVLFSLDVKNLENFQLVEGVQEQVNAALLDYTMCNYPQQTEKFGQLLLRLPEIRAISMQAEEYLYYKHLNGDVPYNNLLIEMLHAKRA
The source made the active and inactive calls.
assay-metric: IC50

Q: Quick one: IC50 for `CCc1cc(=O)oc2c(C)c(OCC(=O)NCCCN3CCOCC3)ccc12` ?
Ans: 35.9 µM (inactive)

Q: Quick one: IC50 for CC(O)(c1cccnc1)c1nc(-c2cccc(C#N)c2)cs1 (centres undefined) ?
Ans: 35.9 µM (inactive)

Q: Quick one: IC50 for `O=C(Nc1ccc(Cc2ccncc2)cc1)c1cccc([N+](=O)[O-])c1` ?
Ans: 35.9 µM (inactive)

Q: Quick one: IC50 for `Cc1cc(NC(=O)c2ccc([N+](=O)[O-])o2)ccc1NC(=O)c1ccco1` ?
Ans: 35.9 µM (inactive)
